Data provenance is paper PMC9501768.

Attribute: half-life at 0.1 mg/mL
# Experiment: Release of native API from API-linker construct in buffer (UHPLC, first-order fit)
# Format: physicochemical
# Assay conditions: ammonium acetate buffer, pH 5, API-trityl linker construct in buffer, pH 5.0, 37 °C; read-out: t1/2 pH 5.0 (converted)

Molecule	half-life at 0.1 mg/mL
C=C(C)C(=O)NCCCNC(=O)c1ccc(C(Nc2ccc(CC(=O)[O-])c3oc4c(C)c(C)ccc4c(=O)c23)(c2ccc(OC)c(OC)c2)c2ccc(OC)c(OC)c2)cc1.[Li+]	< 1 h
C=C(C)C(=O)NCCCNC(=O)c1cccc(C(Nc2ccn([C@@H]3O[C@H](CO)[C@@H](O)C3(F)F)c(=O)n2)(c2ccc(OC)cc2)c2ccc(OC)cc2)c1	> 72 h
C=C(C)C(=O)NCCCNC(=O)c1ccc(C(Nc2ccc(CC(=O)[O-])c3oc4c(C)c(C)ccc4c(=O)c23)(c2ccc(OC)c(C)c2)c2ccc(OC)c(C)c2)cc1.[Li+]	< 1 h

Request: Can you look up the measured half-life at 0.1 mg/mL of C=C(C)C(=O)NCCCNC(=O)c1cccc(C(Nc2ccc(CC(=O)[O-])c3oc4c(C)c(C)ccc4c(=O)c23)(c2ccc(OC)cc2)c2ccc(OC)cc2)c1.[Li+] for me?
Response: 1.8 h

Request: Likewise for C=C(C)C(=O)NCCCNC(=O)c1cccc(C(Nc2ccc(CC(=O)[O-])c3oc4c(C)c(C)ccc4c(=O)c23)(c2ccc(OC)c(OC)c2)c2ccc(OC)c(OC)c2)c1.[Li+] ?
Response: < 1 h

Request: Follow-up entry: COc1cccc2c1C(=O)c1c(O)c3c(c(O)c1C2=O)C[C@@](O)(C(=O)CO)C[C@@H]3O[C@H]1C[C@H](N)[C@H](O)[C@H](C)O1 [compound 2, doxorubicin, reference compound]
Response: < 1 h

Request: For C=C(C)C(=O)NCCCNC(=O)c1ccc(C(Nc2ccc(CC(=O)[O-])c3oc4c(C)c(C)ccc4c(=O)c23)(c2ccc(OC)cc2OC)c2ccc(OC)cc2OC)cc1.[Li+] then?
Response: < 1 h
